These entries and their values trace back to paper PMC5615838.

Assay: proof of exposure in 28-day study, plasma concentrations
Assay type: in vivo, rat
Conditions: female, Crl:CD(SD) (Sprague-Dawley), rat, plasma (peripheral blood), oral, 10 mg/kg bw/day
ASSAY_METRIC: concentration at 29 day (ng/mL)
# value in ng/mL; strip the unit string

Looking for the measured concentration at 29 day of "Cc1noc(C)c1Cn1cc(N2C(=O)N(Cc3cccc(O)c3)C(C)(C)C2=O)cn1" , can you help?
18.4

###

Experiment: toxicokinetics in 90-day toxicity study
Assay type: in vivo, rat
Conditions: female, Sprague-Dawley, rat, plasma, po, 100 mg/kg, Cmax, Week 6, 100 mg/kg bw, F
ASSAY_METRIC: Cmax (ng/mL)
Expressed in ng/mL, but write only the number.

What measured Cmax goes with Cc1noc(C)c1Cn1cc(N2C(=O)CN(Cc3cccc(O)c3)C2=O)cn1 [S6821] ?
95.6

###

Assay: toxicokinetics in 90-day toxicity study
Format: in vivo, rat
Conditions: male, Sprague-Dawley, rat, plasma, po, 10 mg/kg, AUC0-24h, Week 6, 10 mg/kg bw, M
ASSAY_METRIC: AUC(0-t) (ng·h/mL)
Return type: number; implicit unit ng·h/mL.

I have this molecule here, "Cc1noc(C)c1Cn1cc(N2C(=O)CN(Cc3cccc(O)c3)C2=O)cn1" , and I need its recorded AUC(0-t).
126

###

Assay: toxicokinetics in 90-day toxicity study
Format: in vivo, rat
Details: female, Sprague-Dawley [Crl:CD(SD)], rat, plasma, po, 10 mg/kg, Cmax, Day 7, 10 mg/kg bw, F
ASSAY_METRIC: Cmax
The answer consists of two parts: a number and, after it, its unit.

Quick one: Cmax of "Cc1noc(C)c1Cn1cc(N2C(=O)CN(Cc3cccc(O)c3)C2=O)cn1" ?
7.22 ng/mL

###

Test: toxicokinetics in 90-day toxicity study
Type: in vivo, rat
Settings: female, Sprague-Dawley [Crl:CD(SD)], rat, plasma, po, 100 mg/kg, AUC0-24h, Week 13, 100 mg/kg bw, F
ASSAY_METRIC: AUC(0-t) (ng·h/mL)
// units = ng·h/mL; emit number, no label

For the compound shown here, "Cc1noc(C)c1Cn1cc(N2C(=O)CN(Cc3cccc(O)c3)C2=O)cn1" , give the reported AUC(0-t).
1670

###

Test: toxicokinetics in 90-day toxicity study
Assay type: in vivo, rat
Details: female, Sprague-Dawley [Crl:CD(SD)], rat, plasma, po, 30 mg/kg, AUC0-24h, Week 13, 30 mg/kg bw, F
ASSAY_METRIC: AUC(0-t) (ng·h/mL)
Give the number; ng·h/mL is assumed, so skip it.

What value of AUC(0-t) has been recorded for this entry: "Cc1noc(C)c1Cn1cc(N2C(=O)CN(Cc3cccc(O)c3)C2=O)cn1"
344

###

Test: pharmacokinetics and oral bioavailability of S6821
Assay type: in vivo, rat
Conditions: male, Sprague-Dawley, rat, plasma, iv, 1 mg/kg
ASSAY_METRIC: Cmax (ng/mL)
# unit: ng/mL | format: bare number

Would you kindly share the measured Cmax for "Cc1noc(C)c1Cn1cc(N2C(=O)CN(Cc3cccc(O)c3)C2=O)cn1" ?
619

###

Molecular target: hERG (Homo sapiens)
Sequence (Q12809 whole entry): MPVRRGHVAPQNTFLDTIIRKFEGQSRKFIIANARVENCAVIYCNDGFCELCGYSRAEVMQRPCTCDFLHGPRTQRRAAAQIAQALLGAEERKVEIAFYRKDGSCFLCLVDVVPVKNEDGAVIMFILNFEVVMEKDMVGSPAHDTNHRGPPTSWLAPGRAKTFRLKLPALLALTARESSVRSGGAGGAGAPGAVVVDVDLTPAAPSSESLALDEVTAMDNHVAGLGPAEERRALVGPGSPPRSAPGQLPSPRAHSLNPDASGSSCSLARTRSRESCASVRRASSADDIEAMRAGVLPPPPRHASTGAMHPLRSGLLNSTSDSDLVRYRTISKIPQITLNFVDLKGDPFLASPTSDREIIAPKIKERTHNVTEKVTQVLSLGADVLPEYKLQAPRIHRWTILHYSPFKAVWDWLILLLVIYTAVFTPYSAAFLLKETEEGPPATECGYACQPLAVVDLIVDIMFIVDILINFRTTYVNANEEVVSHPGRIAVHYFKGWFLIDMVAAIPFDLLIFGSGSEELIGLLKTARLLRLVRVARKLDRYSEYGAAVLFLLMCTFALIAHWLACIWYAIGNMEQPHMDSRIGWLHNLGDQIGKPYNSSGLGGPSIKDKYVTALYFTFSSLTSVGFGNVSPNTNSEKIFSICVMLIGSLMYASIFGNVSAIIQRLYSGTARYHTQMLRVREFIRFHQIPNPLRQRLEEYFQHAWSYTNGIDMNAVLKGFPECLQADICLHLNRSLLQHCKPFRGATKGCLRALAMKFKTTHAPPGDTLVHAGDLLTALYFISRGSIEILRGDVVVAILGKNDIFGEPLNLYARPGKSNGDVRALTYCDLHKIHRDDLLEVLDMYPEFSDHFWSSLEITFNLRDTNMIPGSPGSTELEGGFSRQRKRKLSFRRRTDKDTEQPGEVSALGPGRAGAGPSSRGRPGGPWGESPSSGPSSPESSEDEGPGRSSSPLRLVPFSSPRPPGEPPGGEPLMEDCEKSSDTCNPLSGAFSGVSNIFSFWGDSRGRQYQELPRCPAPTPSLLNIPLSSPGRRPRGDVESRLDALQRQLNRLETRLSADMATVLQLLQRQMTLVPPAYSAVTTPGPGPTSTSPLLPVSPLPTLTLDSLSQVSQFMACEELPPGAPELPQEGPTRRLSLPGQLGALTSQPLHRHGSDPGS
Assay: hERG electrophysiology
Format: cell-based
Exercise: for every item that follows, state its recorded inhibition at 10 µM.

For the compound shown here, Cc1noc(C)c1Cn1cc(N2C(=O)N(Cc3cccc(O)c3)C(C)(C)C2=O)cn1 [S7958] , give the reported inhibition at 10 µM.
< 10%

Could you tell me which inhibition at 10 µM is on file for Cc1noc(C)c1Cn1cc(N2C(=O)CN(Cc3cccc(O)c3)C2=O)cn1 [S6821] ?
< 10%
